System: liver microsomes (Mus musculus)
Experiment: Metabolic stability in mouse liver microsome assessed as intrinsic clearance measured upto 60 mins by LC-MS/MS analysis
Settings: read-out: CLH

MOLECULE: O=C1CCC2Cc3ccccc3N12 (racemic)
TESTED SYSTEM: liver microsomes (Mus musculus)
microsomal CLint [µL/min/mg]: 74
